- protocol: optical density shifts of acrAB sulA E. coli – strain DRC41, OD650, 48 h, E. coli filamentation inducer project, primary screen (AID 1152);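 further: E. coli MC1000 strain DRC41 lacking acrAB efflux pump and sulA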
- condition_label: higher = more signal, called active from +8 up or from −8 down
Calls of active or inactive are those of the source.
reported_metric: z-score

>  <compound>
CC1CC/C=C\[C@H]2OC34C=CCN(CCN5CCOCC5)C(=O)[C@H]3N(CCCCCO)C(=O)[C@@H]4C2C(=O)O1 (stereo not given in full)

>  <test_value>
-0.346 (inactive)

$$$$
>  <compound>
COc1ccc([Si](C)(C)[C@@H]2[C@@H](CCn3cc([C@H](O)c4ccccc4)nn3)O[C@]3(C(=O)N(C)c4ccccc43)[C@H]2C)cc1

>  <test_value>
-0.702 (inactive)

$$$$
>  <compound>
[N-]=[N+]=Nc1ccccc1[C@@H]1OC(c2ccc(OCCCO)cc2)=N[C@]1(CCS(=O)(=O)c1ccccc1)C(=O)N1CCCCC1

>  <test_value>
-0.112 (inactive)

$$$$
>  <compound>
Cc1ccccc1/C=C/C=O

>  <test_value>
0.871 (inactive)

$$$$
>  <compound>
C=CCN1Cc2ccccc2C[C@]2(N=C(c3ccc(OCCCO)cc3)O[C@@H]2c2ccccc2)C1=O

>  <test_value>
1.35 (inactive)

$$$$
>  <compound>
CN1C(=O)C2C(C1=O)C1C=C(c3ccc(CO)cc3)C2C(C2CC2)N1Cc1cc2c(cc1Br)OCO2 (stereo not given)

>  <test_value>
-0.515 (inactive)

$$$$
>  <compound>
[N-]=[N+]=Nc1ccccc1[C@@H]1OC(c2ccc(OCCCO)cc2)=N[C@]1(CCS(=O)(=O)c1ccccc1)C(=O)O

>  <test_value>
0.604 (inactive)

$$$$
>  <compound>
OCCCc1cc[n+](Cc2cccc(OC(F)(F)F)c2)cc1

>  <test_value>
-0.123 (inactive)

$$$$
>  <compound>
COCCOC(=O)N1C(=O)[C@@]2(c3cc(C#CCCO)ccc31)[C@H](C(=O)NC[C@H](O)c1ccccc1)[C@H]1C(=O)O[C@H](c3ccccc3)[C@H](c3ccccc3)N1[C@@H]2c1ccc(OCCO)cc1

>  <test_value>
1.96 (inactive)

$$$$
>  <compound>
CC(C)C[C@@H]1NC(=O)[C@@H]2C[C@H](C(=O)NCCCCN(C)C)[C@H](c3ccc(O)cc3)N2C1=O

>  <test_value>
-0.0654 (inactive)

$$$$
>  <compound>
O=C(CS)NCCCCCNC(=O)[C@H]1C[C@H]2C(=O)N[C@@H](Cc3ccccc3)C(=O)N2[C@H]1c1cccc(OCCO)c1

>  <test_value>
1.77 (inactive)

$$$$
>  <compound>
Cn1c2c(c3ccccc31)C(=O)C1NC2C=CC1(C)C(=O)OCc1ccccc1 (stereo not given)

>  <test_value>
-1.14 (inactive)

$$$$
>  <compound>
O=C1O[C@H](c2ccccc2)[C@H](c2ccccc2)N2[C@H]1[C@@H](C(=O)N1CCCCCCC1)[C@]1(C(=O)Nc3ccc(C#CC4=CCCCC4)cc31)[C@H]2c1ccc(O)cc1

>  <test_value>
-0.306 (inactive)

$$$$
>  <compound>
COCCOC(=O)N1C(=O)[C@@]2(c3ccccc31)[C@H](c1ccc(O)cc1)N1[C@H](c3ccccc3)[C@H](c3ccccc3)OC(=O)[C@H]1[C@@H]2C(N)=O

>  <test_value>
0.0672 (inactive)

$$$$
>  <compound>
COC(=O)[C@@]1(Cc2ccc(OC)cc2)[C@H]2c3cc(C(=O)N4CCCC4)n(CCN4CCOCC4)c3C[C@H]2CN1C(=O)c1ccccc1

>  <test_value>
-0.861 (inactive)

$$$$
